# protocol details: Selectivity index, ratio of IC50 for Cytotoxic activity against human MCF-10A cells to IC50 for antiproliferative activity against human NCI-ADR-RES cells
# Format: toxicity, cell-based
# measurement conditions: MCF-10A cells versus NCI-ADR-RES cells, read-out: Ratio IC50

| smiles code | selectivity ratio |
| --- | --- |
| COc1ccc(/C=C/C(=O)OC/C(C)=C\C=C/[C@H](C)[C@H]2CC[C@]3(C)C[C@@H]4C(C)=CC(=O)[C@H]4/C(C=O)=C\C[C@@H]23)cc1OC | 9.29 |
| CC(C)=C/C=C\[C@H](C)[C@H]1CC[C@]2(C)C[C@@H]3C(C)=CC(=O)[C@H]3/C(C=O)=C\C[C@@H]12 | 1.32 |
| CC1=CC(=O)[C@H]2/C(C=O)=C\C[C@H]3[C@@H]([C@@H](C)/C=C\C=C(\C)COC(=O)/C=C/c4cc(F)c(F)c(F)c4)CC[C@]3(C)C[C@H]12 | 8.98 |
| COc1ccc(OC)c(/C=C/C(=O)OC/C(C)=C\C=C/[C@H](C)[C@H]2CC[C@]3(C)C[C@@H]4C(C)=CC(=O)[C@H]4/C(C=O)=C\C[C@@H]23)c1 | 6.07 |
| CC1=CC(=O)[C@H]2/C(C=O)=C\C[C@H]3[C@@H]([C@@H](C)/C=C\C=C(\C)COC(=O)/C=C/c4ccc(Br)cc4)CC[C@]3(C)C[C@H]12 | 8.05 |
| COc1ccc(/C=C/C(=O)OC/C(C)=C\C=C/[C@H](C)[C@H]2CC[C@]3(C)C[C@@H]4C(C)=CC(=O)[C@H]4/C(C=O)=C\C[C@@H]23)c(OC)c1OC | 3.16 |

Recorded values, source ChEMBL document CHEMBL5154844.
